Tested on: Rhizoctonia solani
Experiment: Fungicidal (bactericidal) activity in vitro, PDA colony diameter
Type: cell-based
Conditions: 50 mg/kg
Observable: Bactericidal activity (%) Rhizoctonia solani
State just the number; it will be interpreted in %.

Entry `O=C(O)/C=C/c1cc2c([nH]c3ccccc32)c(-c2cccs2)n1` : reported Bactericidal activity (%) Rhizoctonia solani = ?
17.9

Entry CCOC(=O)C1Cc2c([nH]c3ccccc23)CN1 (centres unmarked) : reported Bactericidal activity (%) Rhizoctonia solani = ?
35.5

Entry `C[C@@H]1N[C@H](C(=O)NN=Cc2ccc(Cl)cc2Cl)Cc2c1[nH]c1ccccc21` : reported Bactericidal activity (%) Rhizoctonia solani = ?
45.8

Entry `COc1ccc(C=NNC(=O)[C@@H]2Cc3c([nH]c4ccccc34)[C@H](C)N2)cc1OC` : reported Bactericidal activity (%) Rhizoctonia solani = ?
44.4

Entry `C[C@@H]1N[C@H](C(=O)NNC(=O)c2ccncc2)Cc2c1[nH]c1ccccc21` : reported Bactericidal activity (%) Rhizoctonia solani = ?
15.3
